# ASSAY_PROTOCOL: Solubility screening procedure (concentration and pH of filtrate)
# Assay type: physicochemical
# CONDITION_DESCRIPTION: compound A + equimolar acid, amino acid or base in deionized water, room temperature, filtrate, UV assay
REPORTED_METRIC: Conc. of CPD A (µg/mL)
Reply numerically in µg/mL, unit not repeated.

Task: What does the record list as Conc. of CPD A for CCn1cc(C(=O)O)c(=O)c2cc(F)c(N3CCNCC3)cc21 [A Methane Sulphonic] ?
Result: 175000

Task: What does the record list as Conc. of CPD A for CCn1cc(C(=O)O)c(=O)c2cc(F)c(N3CCNCC3)cc21 [A L-Histidine] ?
Result: 700

Task: What does the record list as Conc. of CPD A for CCn1cc(C(=O)O)c(=O)c2cc(F)c(N3CCNCC3)cc21 [A Acetic] ?
Result: 235000

Task: What does the record list as Conc. of CPD A for CCn1cc(C(=O)O)c(=O)c2cc(F)c(N3CCNCC3)cc21 [A Tartaric] ?
Result: 3500

Task: What does the record list as Conc. of CPD A for CCn1cc(C(=O)O)c(=O)c2cc(F)c(N3CCNCC3)cc21 [A L-Glutamic] ?
Result: 174000

Task: What does the record list as Conc. of CPD A for CCn1cc(C(=O)O)c(=O)c2cc(F)c(N3CCNCC3)cc21 [A Hydrochloric] ?
Result: 201000

Task: What does the record list as Conc. of CPD A for CCn1cc(C(=O)O)c(=O)c2cc(F)c(N3CCNCC3)cc21 [A Sodium Hydroxide] ?
Result: 131000

Task: What does the record list as Conc. of CPD A for CCn1cc(C(=O)O)c(=O)c2cc(F)c(N3CCNCC3)cc21 [A L-Leucine] ?
Result: 900

Task: What does the record list as Conc. of CPD A for CCn1cc(C(=O)O)c(=O)c2cc(F)c(N3CCNCC3)cc21 [A Gluconic] ?
Result: 182000

Task: What does the record list as Conc. of CPD A for CCn1cc(C(=O)O)c(=O)c2cc(F)c(N3CCNCC3)cc21 [A Citric] ?
Result: 1500

Task: What does the record list as Conc. of CPD A for CCn1cc(C(=O)O)c(=O)c2cc(F)c(N3CCNCC3)cc21 [A L-Lysine] ?
Result: 4200

Task: What does the record list as Conc. of CPD A for CCn1cc(C(=O)O)c(=O)c2cc(F)c(N3CCNCC3)cc21 [A D,L-Alanine] ?
Result: 900

Task: What does the record list as Conc. of CPD A for CCn1cc(C(=O)O)c(=O)c2cc(F)c(N3CCNCC3)cc21 [A Isethionic] ?
Result: 175000

Task: What does the record list as Conc. of CPD A for CCn1cc(C(=O)O)c(=O)c2cc(F)c(N3CCNCC3)cc21 [A L-Arginine] ?
Result: 11100

Task: What does the record list as Conc. of CPD A for CCn1cc(C(=O)O)c(=O)c2cc(F)c(N3CCNCC3)cc21 [A L-Aspartic] ?
Result: 174000

Task: What does the record list as Conc. of CPD A for CCn1cc(C(=O)O)c(=O)c2cc(F)c(N3CCNCC3)cc21 [A Lactobionic] ?
Result: 46500

Task: What does the record list as Conc. of CPD A for CCn1cc(C(=O)O)c(=O)c2cc(F)c(N3CCNCC3)cc21 [A L-Proline] ?
Result: 900

Task: What does the record list as Conc. of CPD A for CCn1cc(C(=O)O)c(=O)c2cc(F)c(N3CCNCC3)cc21 [A Lactic] ?
Result: 198000

Task: What does the record list as Conc. of CPD A for CCn1cc(C(=O)O)c(=O)c2cc(F)c(N3CCNCC3)cc21 [A Galacturonic] ?
Result: 166000
